System: HCT116 MTAP-deleted cell lines
Assay Text: Cell viability assay (CellTiter-Glo, 7 days), HCT116 MTAP-deleted
Assay type: cell-based
Assay Context: Homo sapiens, HCT-116; cell viability assay, HCT116 MTAP-deleted; class symbols; read-out: CC50
Below: a set of entries, each annotated with reported CC50.

Some compounds with known CC50 results, for comparison:
Compound	CC50
Nc1nc2cnc(C(=O)N3CC[C@H]4C[C@@H]3c3ccc(C(F)(F)F)c(F)c3O4)cc2n2cncc12	< 100 nM
Nc1nc2cnc(C(=O)N3CCC[C@@H]4Oc5cc(OC(F)(F)F)cc(F)c5[C@@H]43)cc2n2cncc12 (single isomer, unassigned)	< 100 nM
Cc1ncn2c1c(N)nc1cnc(C(=O)N3CC(C)(C)CC4Oc5cc(OC(F)(F)F)ccc5C43)cc12 (stereo not shown)	100 to 1000 nM

Would you kindly share the measured CC50 for Cc1ncn2c1c(N)nc1cnc(C(=O)N3CC[C@H]4C[C@@H]3c3ccc(OC(F)(F)F)cc3O4)cc12 ? < 100 nM

Try this compound next: Nc1nc2cc(F)c(C(=O)N3CCC[C@@H]4Oc5cc(-c6cnn(C(F)F)c6)ccc5[C@@H]43)cc2n2cncc12 < 100 nM

Subsequent entry: CC(C)N(Cc1ccc(-c2cnn(-c3ccccc3)c2)cc1F)C(=O)c1cc2c(cc1F)nc(N)c1cncn12 < 100 nM
